src = ChEMBL document CHEMBL1154195

For each of the compounds below, state its Ratio pKi.
Species on record: Homo sapiens
Experiment: Ratio of pKi for human cloned 5HT2A receptor to pKi for human cloned dopamine D2 receptor

Recorded Ratio pKi (compound O=C1CC(CN2CCC(C(=O)c3ccc(F)cc3)CC2)Cc2ncncc21 (stereo not given) ): 1.05

The measured Ratio pKi associated with CNc1ncc2c(n1)CC(CN1CCC(c3noc4cc(F)ccc34)CC1)CC2=O (stereo not given) reads 1.18

Ratio pKi recorded for this compound, O=C1CC(CN2CCC(c3noc4cc(F)ccc34)CC2)Cc2nc(-c3ccccc3)ncc21 (stereo not given) , is 0.92

# Ratio pKi (compound: O=C1CC(CN2CCC(c3noc4cc(F)ccc34)CC2)Cc2ncncc21 (stereo not given) ) is 1.12

For record CNc1ncc2c(n1)CC(CN1CCC(C(=O)c3ccc(F)cc3)CC1)CC2=O (stereo not given) the listed Ratio pKi is 1.23
